# EXPERIMENT SUMMARY: amyloid nucleation score (Sup35N fusion, yeast selection) (log enrichment); library NNK3; higher = more nucleation; inactive = no reads after selection;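 further: zero at mode of non-aggregating sequences after 7 days selection at 30°C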
ASSAY ENDPOINT: amyloid nucleation score

| SUBSTANCE | ASSAY ENDPOINT | RESULT |
| --- | --- | --- |
| CPCFNLV | amyloid nucleation score | inactive |
| YLGGVRSII | amyloid nucleation score | -0.402 |
| VLLYDECMMFVNSLMFTNSE | amyloid nucleation score | -0.501 |
| WPFRKKYGIVEIRDEMYAG | amyloid nucleation score | inactive |
| QRFFRCIRSRSWTFTSGVIV | amyloid nucleation score | inactive |

Respond only with amyloid nucleation score recorded for RDNWSVNLDTKHDLSIAGKL inactive

Respond only with amyloid nucleation score recorded for LYIIKSR -0.51

Respond only with amyloid nucleation score recorded for PGKGKELSRASGSRATV inactive

Respond only with amyloid nucleation score recorded for KFSCINVDPMHYSNSWTT inactive

Respond only with amyloid nucleation score recorded for STWDLNMCLFRYMFKI inactive

Respond only with amyloid nucleation score recorded for AFLACLRLKDLDVVFRSPNR inactive

Respond only with amyloid nucleation score recorded for CFCRMNIGGHCGVRRKLKV inactive

---

Reported amyloid nucleation score values are given for each entry in this list.
# EXPERIMENT SUMMARY: amyloid nucleation score (Sup35N fusion, yeast selection) (log enrichment); library NNK2; higher = more nucleation; inactive = no reads after selection
// response body must contain only the number

| SUBSTANCE | amyloid nucleation score |
| --- | --- |
| RLVTGGVWMDSDDSYRVIET | -0.032 |

Respond only with amyloid nucleation score recorded for YVCGRENILFFERLKS -0.327

Respond only with amyloid nucleation score recorded for SQFLIMTEDR 0.123

Respond only with amyloid nucleation score recorded for ITKAASTWDLLFFVRQVCRT 0.353

Respond only with amyloid nucleation score recorded for YGFVDSHRTH 0.092

Respond only with amyloid nucleation score recorded for TVMKDYMALESSSYVNPMLI -0.251

Respond only with amyloid nucleation score recorded for VRSRKCLSVRLFSSVMGVSD -0.88

Respond only with amyloid nucleation score recorded for YLHLSQTQWLGLIFNRRSFD 3.62

Respond only with amyloid nucleation score recorded for WHSVKMVNMFVGSKVISRSF 5.42

Respond only with amyloid nucleation score recorded for TGALVNM 0.13

---

# EXPERIMENT SUMMARY: amyloid nucleation score (Sup35N fusion, yeast selection) (log enrichment); library NNK3; higher = more nucleation; inactive = no reads after selection
ASSAY ENDPOINT: amyloid nucleation score

Answered examples (4):
| SUBSTANCE | amyloid nucleation score |
| --- | --- |
| LDFCFLGHRWRSFSGSYRKS | inactive |
| VYQQSWQVLDFVRWDTERME | inactive |
| DARVVGVLDVRDLAKYFWMA | inactive |
| WKFWVAC | inactive |

Respond only with amyloid nucleation score recorded for HLYDKSMNVGSRSARAELSM inactive

Respond only with amyloid nucleation score recorded for DGFIWAQGLTLIFMRSNMKR 2.42

---

# EXPERIMENT SUMMARY: amyloid nucleation score (Sup35N fusion, yeast selection) (log enrichment); library NNK1; higher = more nucleation; inactive = no reads after selection
Where amyloid nucleation score equals or exceeds -0.2, the correct label is class 1; where it does not, the label is class 0.

Consider the worked cases shown below.
| SUBSTANCE | CATEGORY |
| --- | --- |
| RQRTIFWLMFWELAMFNCHM | class 0 |
| NWLFRQCGSQMMVYVFEFFY | class 0 |
| FSDSKLILRRRNPW | class 0 |

Decide: amyloid nucleation score of KSDSVLAGY >= -0.2? class 1

Decide: amyloid nucleation score of TERDLYDILTKTMGIGVSRW >= -0.2? class 0

Decide: amyloid nucleation score of LYRSLLN >= -0.2? class 0

Decide: amyloid nucleation score of VFSDTPALCIDGLKLFAMVR >= -0.2? class 1

Decide: amyloid nucleation score of VWFRCWSPEVENGHVCLSCS >= -0.2? class 1

Decide: amyloid nucleation score of HIFCRVIPLHMYKLADNW >= -0.2? class 1

Decide: amyloid nucleation score of NVLGLFQLRDSTQNGAMYIL >= -0.2? class 1

Decide: amyloid nucleation score of LTRGQSLPMCATSVFEEYSH >= -0.2? class 1

Decide: amyloid nucleation score of LFLFTGLSSRSLHMCIYEIL >= -0.2? class 1

Decide: amyloid nucleation score of GICELQRPTYVTLVEVFMVD >= -0.2? class 0

Decide: amyloid nucleation score of SKLLNVDLTPCRSRTTLFVC >= -0.2? class 1

Decide: amyloid nucleation score of VLDMKFKYNVPSLK >= -0.2? class 1

Decide: amyloid nucleation score of LNCCYKKNVGIQDMRTMDIQ >= -0.2? class 1
